experimental target: IKZF1 (Homo sapiens, UniProt Q13422+Q96SW2)
Construct: expressed in transfected cells
Sequence (Q13422 whole entry): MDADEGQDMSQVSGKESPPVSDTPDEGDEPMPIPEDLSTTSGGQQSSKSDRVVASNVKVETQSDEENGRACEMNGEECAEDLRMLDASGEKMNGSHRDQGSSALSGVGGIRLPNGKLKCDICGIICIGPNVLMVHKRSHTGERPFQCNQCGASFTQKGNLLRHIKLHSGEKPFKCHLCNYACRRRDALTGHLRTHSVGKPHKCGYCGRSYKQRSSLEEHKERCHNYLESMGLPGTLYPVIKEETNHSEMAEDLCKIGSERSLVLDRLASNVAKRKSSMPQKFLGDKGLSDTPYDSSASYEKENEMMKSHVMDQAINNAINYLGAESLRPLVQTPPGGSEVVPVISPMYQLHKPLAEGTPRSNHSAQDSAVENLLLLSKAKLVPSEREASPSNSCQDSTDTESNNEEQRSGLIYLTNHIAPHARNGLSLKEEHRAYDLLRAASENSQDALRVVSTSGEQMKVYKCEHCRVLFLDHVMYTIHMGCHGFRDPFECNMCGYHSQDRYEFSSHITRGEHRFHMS
Sequence (Q96SW2 whole entry): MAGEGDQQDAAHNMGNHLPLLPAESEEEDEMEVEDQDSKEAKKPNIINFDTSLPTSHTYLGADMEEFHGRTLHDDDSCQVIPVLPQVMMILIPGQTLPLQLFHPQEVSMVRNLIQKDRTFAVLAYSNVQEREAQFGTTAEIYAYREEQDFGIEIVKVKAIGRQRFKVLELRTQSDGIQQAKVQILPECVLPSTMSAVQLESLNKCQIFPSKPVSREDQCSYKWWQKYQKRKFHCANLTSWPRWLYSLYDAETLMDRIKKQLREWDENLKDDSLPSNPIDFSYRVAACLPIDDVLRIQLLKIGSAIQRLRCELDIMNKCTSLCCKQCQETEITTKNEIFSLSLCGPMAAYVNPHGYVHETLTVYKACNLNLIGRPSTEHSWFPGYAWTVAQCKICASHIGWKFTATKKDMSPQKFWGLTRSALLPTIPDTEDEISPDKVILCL
Sequence (Q16531 whole entry partner): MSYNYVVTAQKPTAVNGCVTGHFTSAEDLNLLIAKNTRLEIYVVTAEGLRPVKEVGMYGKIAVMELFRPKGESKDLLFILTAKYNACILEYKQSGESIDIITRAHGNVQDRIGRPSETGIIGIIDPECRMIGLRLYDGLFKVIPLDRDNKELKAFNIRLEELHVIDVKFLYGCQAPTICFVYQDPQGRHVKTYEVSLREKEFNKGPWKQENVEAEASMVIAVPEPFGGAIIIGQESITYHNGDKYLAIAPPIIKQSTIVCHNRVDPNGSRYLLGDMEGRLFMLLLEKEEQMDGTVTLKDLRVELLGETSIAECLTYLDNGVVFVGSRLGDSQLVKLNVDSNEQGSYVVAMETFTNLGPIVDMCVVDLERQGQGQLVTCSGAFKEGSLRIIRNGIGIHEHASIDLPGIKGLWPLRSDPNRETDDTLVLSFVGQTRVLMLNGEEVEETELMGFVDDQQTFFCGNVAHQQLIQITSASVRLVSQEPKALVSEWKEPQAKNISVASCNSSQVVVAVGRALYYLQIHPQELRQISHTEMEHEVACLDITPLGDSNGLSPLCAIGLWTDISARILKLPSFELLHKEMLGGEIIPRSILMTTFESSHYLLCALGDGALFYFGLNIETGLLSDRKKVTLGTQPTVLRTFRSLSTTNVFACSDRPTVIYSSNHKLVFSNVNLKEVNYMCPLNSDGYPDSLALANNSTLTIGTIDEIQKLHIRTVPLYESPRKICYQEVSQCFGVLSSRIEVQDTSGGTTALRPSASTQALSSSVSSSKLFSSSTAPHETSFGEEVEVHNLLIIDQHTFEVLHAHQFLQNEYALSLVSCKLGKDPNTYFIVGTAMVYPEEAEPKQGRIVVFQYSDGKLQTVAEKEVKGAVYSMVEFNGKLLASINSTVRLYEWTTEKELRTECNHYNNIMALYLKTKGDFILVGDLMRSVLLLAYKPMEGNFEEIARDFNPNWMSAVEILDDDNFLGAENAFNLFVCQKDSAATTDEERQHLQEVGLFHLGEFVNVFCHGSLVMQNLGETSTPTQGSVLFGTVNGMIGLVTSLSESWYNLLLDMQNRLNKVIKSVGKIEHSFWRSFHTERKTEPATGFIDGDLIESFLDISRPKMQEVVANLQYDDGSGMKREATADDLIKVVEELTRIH
assay details: HiBiT protein tagging assay, in vitro IKZF1 degradation (HEK293)
Type: cell-based
experimental parameters: HEK293, 18-24 hr incubation, normalized to DMSO control, read-out: IKZF1 EC50
property label: DC50 (nM)

O=C1CCC(N2Cc3cc(CN[C@H]4CCC[C@@H](Nc5ccccc5)C4)ccc3C2=O)C(=O)N1 (some centres unmarked) [Example 91] : 116
O=C1CCC(N2Cc3cc(CN[C@@H]4CCCN(Cc5ccncc5)C4)ccc3C2=O)C(=O)N1 (some centres unmarked) [Example 125] : 124

P. COC(=O)C1(C)CCCC(NCc2ccc3c(c2)CN(C2CCC(=O)NC2=O)C3=O)C1 (centres unmarked) [Example 144]
Q. N#C[C@H]1CC[C@H](NCc2ccc3c(c2)CN(C2CCC(=O)NC2=O)C3=O)CC1 (some centres unmarked) [Example 80]
Which value of DC50 is numerically greater: that of P or that of Q ? Give the chosen item's label as your response.
Q
